# Lookup of reported IC50 keyed by entry
target: SARS-Cov-2 3CLpro (Severe acute respiratory syndrome coronavirus 2); experiment: biochemical; details: Table A, class symbols, read-out: SARS-Cov-2 (IC50)

compound	measured_target	IC50
C[C@H](NC(=O)C(F)(F)F)C(=O)N(C)[C@@H](CC1CC1)C(=O)N1C[C@]2(C[C@H]1C#N)C(=O)NCC2Oc1ccccc1 (stereo partly drawn) [Compound 94]	SARS-Cov-2 3CLpro (Severe acute respiratory syndrome coronavirus 2)	0.02 to 0.2 µM
CN(C(=O)[C@H](CC1CC1)NC(=O)C1(F)CC1)[C@@H](CC1CC1)C(=O)N1C[C@@]2(CC1C#N)Oc1ccccc1CNC2=O (stereo partly drawn)	SARS-Cov-2 3CLpro (Severe acute respiratory syndrome coronavirus 2)	< 0.02 µM
CO[C@H](C)[C@H](NC(=O)C(F)(F)F)C(=O)N(C)[C@@H](CC1CC1)C(=O)N1C[C@@]2(C[C@H]1C#N)Oc1ncccc1NC2=O	SARS-Cov-2 3CLpro (Severe acute respiratory syndrome coronavirus 2)	< 0.02 µM
C[C@H](NC(=O)C(F)(F)F)C(=O)N(C)[C@@H](CC1CC1)C(=O)N1C[C@@]2(C[C@H]1C#N)Oc1cccnc1NC2=O	SARS-Cov-2 3CLpro (Severe acute respiratory syndrome coronavirus 2)	< 0.02 µM
CN(C(=O)[C@H](COCc1ccccc1)NC(=O)C(F)(F)F)[C@@H](CC1CC1)C(=O)N1C[C@@]2(C[C@H]1C#N)Oc1cccnc1NC2=O	SARS-Cov-2 3CLpro (Severe acute respiratory syndrome coronavirus 2)	< 0.02 µM
CN(C(=O)[C@H](CC1CC1)NC(=O)C(F)(F)F)[C@@H](CC1CC1)C(=O)N1C[C@@]2(C[C@H]1C#N)Oc1ccccc1NC2=O	SARS-Cov-2 3CLpro (Severe acute respiratory syndrome coronavirus 2)	< 0.02 µM
CN(C(=O)[C@H](CC1CC1)NC(=O)C(F)(F)F)[C@@H](CC1CC1)C(=O)N1C[C@@]2(C[C@H]1C#N)Oc1c(F)ccc(F)c1NC2=O	SARS-Cov-2 3CLpro (Severe acute respiratory syndrome coronavirus 2)	< 0.02 µM
C[C@@H](C(=O)N(C)[C@@H](CC1CC1)C(=O)N1C[C@@]2(C[C@H]1C#N)Oc1cccnc1NC2=O)n1cc(C2CC2)nn1	SARS-Cov-2 3CLpro (Severe acute respiratory syndrome coronavirus 2)	0.02 to 0.2 µM
C[C@H](NC(=O)C(F)(F)C(F)(F)F)C(=O)N(C)[C@@H](CC1CC1)C(=O)N1C[C@@]2(C[C@H]1C#N)Oc1cccnc1NC2=O	SARS-Cov-2 3CLpro (Severe acute respiratory syndrome coronavirus 2)	< 0.02 µM
CN(C(=O)[C@H](CC1CC1)NC(=O)C(F)(F)F)[C@@H](CC1CC1)C(=O)N1C[C@@]2(CC1C#N)Oc1c(C#N)cccc1NC2=O (stereo partly drawn)	SARS-Cov-2 3CLpro (Severe acute respiratory syndrome coronavirus 2)	< 0.02 µM
CN(C(=O)[C@H](CC1CC1)NC(=O)C(F)(F)F)[C@@H](CC1CC1)C(=O)N1C[C@@]2(C[C@H]1C#N)Oc1cc(F)cc(F)c1CNC2=O	SARS-Cov-2 3CLpro (Severe acute respiratory syndrome coronavirus 2)	0.02 to 0.2 µM
CN(C(=O)[C@H](CC1CCC1)NC(=O)C(F)(F)F)[C@@H](CC1CC1)C(=O)N1C[C@@]2(C[C@H]1C#N)Oc1ncccc1NC2=O	SARS-Cov-2 3CLpro (Severe acute respiratory syndrome coronavirus 2)	< 0.02 µM
CCN(C(=O)[C@H](C)NC(=O)C(F)(F)F)[C@@H](CC(C)C)C(=O)N1C[C@@]2(C[C@H]1C#N)Oc1cc(F)cc(F)c1NC2=O	SARS-Cov-2 3CLpro (Severe acute respiratory syndrome coronavirus 2)	< 0.02 µM
CN(C(=O)[C@@H](COC(C)(C)C)NC(=O)C(F)(F)F)[C@@H](CC1CC1)C(=O)N1C[C@@]2(C[C@H]1C#N)Oc1cccnc1NC2=O	SARS-Cov-2 3CLpro (Severe acute respiratory syndrome coronavirus 2)	< 0.02 µM
CN1CCC[C@H]1C(=O)N(C)[C@@H](CC1CC1)C(=O)N1C[C@@]2(C[C@H]1C#N)Oc1cc(F)cc(F)c1NC2=O	SARS-Cov-2 3CLpro (Severe acute respiratory syndrome coronavirus 2)	0.02 to 0.2 µM
CC(C)C[C@@H](C(=O)N1C[C@@]2(C[C@H]1C#N)Oc1ccccc1NC2=O)N(C)C(=O)c1cc2c(F)cc(F)cc2[nH]1	SARS-Cov-2 3CLpro (Severe acute respiratory syndrome coronavirus 2)	< 0.02 µM
CN(C(=O)[C@H](CC1CC1)NC(=O)C(F)(F)F)[C@@H](CC1CC1)C(=O)N1C[C@@]2(C[C@H]1C#N)Oc1cccc(F)c1CNC2=O	SARS-Cov-2 3CLpro (Severe acute respiratory syndrome coronavirus 2)	< 0.02 µM
C[C@H](NC(=O)C(F)(F)F)C(=O)N(C)[C@@H](CC1CC1)C(=O)N1C[C@@]2(C[C@H]1C#N)Oc1ncccc1NC2=O	SARS-Cov-2 3CLpro (Severe acute respiratory syndrome coronavirus 2)	< 0.02 µM
CC(C)C[C@@H](C(=O)N1C[C@]2(C[C@H]1C#N)C(=O)NC(=O)N2C)N(C)C(=O)[C@H](C)NC(=O)C(F)(F)F	SARS-Cov-2 3CLpro (Severe acute respiratory syndrome coronavirus 2)	0.2 to 2 µM
CN(C(=O)[C@H](CC1CC1)NC(=O)C(F)(F)F)[C@@H](CC1CC1)C(=O)N1C[C@@]2(C[C@H]1C#N)Oc1cc(F)cnc1NC2=O	SARS-Cov-2 3CLpro (Severe acute respiratory syndrome coronavirus 2)	< 0.02 µM
CC(C)N1CC2(CC2)C[C@H]1C(=O)N(C)[C@@H](CC1CC1)C(=O)N1C[C@@]2(C[C@H]1C#N)Oc1cc(F)cc(F)c1NC2=O	SARS-Cov-2 3CLpro (Severe acute respiratory syndrome coronavirus 2)	< 0.02 µM
CC(C)C[C@@H](C(=O)N1C[C@@]2(C[C@H]1C#N)Oc1cccnc1NC2=O)N(C)C(=O)[C@H](C)NC(=O)C(F)(F)F	SARS-Cov-2 3CLpro (Severe acute respiratory syndrome coronavirus 2)	< 0.02 µM
CN(C(=O)[C@H](CC1CC1)NC(=O)C(F)(F)F)C(CC1CC1)C(=O)N1C[C@]2(Cc3ccccc3NC2=O)C[C@H]1C#N (stereo in doubt)	SARS-Cov-2 3CLpro (Severe acute respiratory syndrome coronavirus 2)	< 0.02 µM
CC(C)C[C@@H](C(=O)N1C[C@]2(C[C@H]1C#N)C(=O)Nc1cc(-c3ccccc3)nn12)N(C)C(=O)[C@H](C)NC(=O)C(F)(F)F	SARS-Cov-2 3CLpro (Severe acute respiratory syndrome coronavirus 2)	0.02 to 0.2 µM

###

# IC50 per record follows
target: SARS-Cov-2 3CLpro (Severe acute respiratory syndrome coronavirus 2); assay: biochemical; details: Table A, class symbols, read-out: SARS-Cov-2 (IC50)
readout_label: IC50

In [3]: df
Out[3]:
                            smiles_notation      reported
0  CC(C)C[C@@H](C(=O)N1C[C@@]2(C[C@H]1C#N)Oc1ccncc1NC2=O)N(C)C(=O)c1cc2c(F)cc(F)cc2[nH]1  20 to 200 nM
1  CN(C(=O)[C@H](CC1CC1)NC(=O)C(F)(F)F)[C@@H](CC1CC1)C(=O)N1C[C@]2(C[C@H]1C#N)C(=O)Nc1nccn12  20 to 200 nM
2  CN(C(=O)[C@H](CC(C)(C)C)n1cc(C2CC2)nn1)[C@@H](CC1CC1)C(=O)N1C[C@@]2(C[C@H]1C#N)Oc1cc(F)cc(F)c1NC2=O       < 20 nM
3  C[C@H](NC(=O)C1(C)CCC1)C(=O)N(C)[C@@H](CC1CC1)C(=O)N1C[C@@]2(C[C@H]1C#N)Oc1cccnc1NC2=O       < 20 nM
4  CN(C(=O)[C@@H](NC(=O)C(F)(F)F)C1CC1)[C@@H](CC1CC1)C(=O)N1C[C@@]2(C[C@H]1C#N)Oc1cccnc1NC2=O       < 20 nM
5  COC(=O)N[C@@H](C)C(=O)N(C)[C@@H](CC(C)C)C(=O)N1C[C@@]2(C[C@H]1C#N)Oc1cc(F)cc(F)c1NC2=O       < 20 nM

###

The following molecules are shown together with reported pIC50 values.
target: UniProt:P0DTD1; assay: biochemical; details: Table A, class symbols, read-out: SARS-Cov-2 (IC50)
pIC50: −log10 of the molar value.

molecule	pIC50
CC(C)C[C@@H](C(=O)N1C[C@@]2(C[C@H]1C#N)CC1(CCCC1)NC2=O)N(C)C(=O)[C@H](C)NC(=O)C(F)(F)F	6.70 to 7.70
CN(C(=O)[C@H](CCCN)NC(=O)C(F)(F)F)[C@@H](CC1CC1)C(=O)N1C[C@@]2(C[C@H]1C#N)Oc1cccnc1NC2=O	> 7.70
CC1NC(=O)[C@]2(C[C@@H](C#N)N(C(=O)[C@H](CC3CC3)N(C)C(=O)[C@H](CC3CC3)NC(=O)C(F)(F)F)C2)Oc2ccccc21 (single isomer, unassigned) [Compound 223]	6.70 to 7.70
CC(C)C[C@@H](C(=O)N1C[C@]2(CC(c3ccccc3)NC2=O)C[C@H]1C#N)N(C)C(=O)[C@H](C)NC(=O)C(F)(F)F (some centres unmarked)	> 7.70
CN(C(=O)[C@@H](NC(=O)C(F)(F)F)C1CC1)[C@@H](CC1CC1)C(=O)N1C[C@@]2(C[C@H]1C#N)Oc1cc(F)cc(F)c1NC2=O	> 7.70
CN(C(=O)[C@H](CC1CC1)NC(=O)C(F)(F)F)[C@@H](CC(C)(C)F)C(=O)N1C[C@@]2(CC1C#N)Oc1cc(F)cc(F)c1NC2=O (some centres unmarked)	> 7.70
CN(C(=O)[C@H](CC(F)F)NC(=O)C(F)(F)F)[C@@H](CC1CC1)C(=O)N1C[C@@]2(C[C@H]1C#N)Oc1cc(F)cc(F)c1NC2=O	> 7.70
CN(C(=O)[C@H](CC1CC1)NC(=O)C(F)(F)F)[C@@H](CC1CC1)C(=O)N1C[C@@]2(C[C@H]1C#N)Oc1cccnc1NC2=O	> 7.70
CC(C)C[C@@H](C(=O)N1CC2(C[C@H]1C#N)Cn1nc(Br)cc1NC2=O)N(C)C(=O)[C@H](C)NC(=O)C(F)(F)F (some centres unmarked)	5.70 to 6.70
C[C@H](NC(=O)C12CC(C1)C2)C(=O)N(C)[C@@H](CC1CC1)C(=O)N1C[C@@]2(C[C@H]1C#N)Oc1cccnc1NC2=O	> 7.70
CC(C)C[C@@H](C(=O)N1C[C@]2(C[C@H]1C#N)C(=O)Nc1ccnn12)N(C)C(=O)[C@H](C)NC(=O)C(F)(F)F	6.70 to 7.70
Cc1c(-c2ccccc2)nn2c1NC(=O)[C@]21C[C@@H](C#N)N(C(=O)[C@H](CC(C)C)N(C)C(=O)[C@H](C)NC(=O)C(F)(F)F)C1	6.70 to 7.70
CN(C(=O)[C@H](CC1CC1)N1CCOC1=O)[C@@H](CC1CC1)C(=O)N1C[C@@]2(C[C@H]1C#N)Oc1cc(F)cc(F)c1NC2=O	6.70 to 7.70
CN(C(=O)C(C)(C)NC(=O)C(F)(F)F)[C@@H](CC1CC1)C(=O)N1C[C@@]2(C[C@H]1C#N)Oc1cc(F)cc(F)c1NC2=O	5.70 to 6.70
Cc1cc2n(n1)[C@@]1(C[C@@H](C#N)N(C(=O)[C@H](CC(C)C)N(C)C(=O)[C@H](C)NC(=O)C(F)(F)F)C1)C(=O)N2	6.70 to 7.70
C[C@H](NC(=O)C(F)(F)F)C(=O)N(C)[C@@H](CC1CC1)C(=O)N1C[C@@]2(C[C@H]1C#N)Oc1cc(F)cnc1NC2=O	> 7.70
CC[C@H](NC(=O)C(F)(F)F)C(=O)N(C)[C@@H](CC1CC1)C(=O)N1C[C@@]2(C[C@H]1C#N)Oc1cc(F)cc(F)c1NC2=O	> 7.70
CN(C(=O)c1cnc(C(F)(F)F)[nH]1)[C@@H](CC1CC1)C(=O)N1C[C@@]2(C[C@H]1C#N)Oc1cc(F)cc(F)c1NC2=O	6.70 to 7.70
CC(C)C[C@@H](C(=O)N1C[C@@]2(CCCNC2=O)C[C@H]1C#N)N(C)C(=O)[C@H](C)NC(=O)C(F)(F)F	4.00 to 4.70
CN(C(=O)c1cc2ccccc2c(=O)[nH]1)[C@@H](CC1CC1)C(=O)N1C[C@@]2(C[C@H]1C#N)Oc1cccnc1NC2=O	5.70 to 6.70
COc1cccc(C[C@@H](NC(=O)C(F)(F)F)C(=O)N(C)[C@@H](CC2CC2)C(=O)N2C[C@@]3(C[C@H]2C#N)Oc2cccnc2NC3=O)c1	> 7.70
CN(C(=O)[C@H](CC1(C)CC1)NC(=O)C(F)(F)F)[C@@H](CC1(C)CC1)C(=O)N1C[C@@]2(C[C@H]1C#N)Oc1cccnc1NC2=O	> 7.70
Cc1cnc2c(c1)NC(=O)[C@]1(C[C@@H](C#N)N(C(=O)[C@H](CC3CC3)N(C)C(=O)[C@H](CC3CC3)NC(=O)C(F)(F)F)C1)O2	> 7.70
